# Tested on: Staphylococcus aureus
# run-description: Antimicrobial activity against methicillin-susceptible Staphylococcus aureus ATCC 29213 after 16 to 20 hrs by microdilution method
# Assay type: functional
readout-kind: MIC (mg/L)
Reply with just the number (in mg/L).

As a guide, the following entries are already answered.
compound="CC(=O)NC[C@H]1CN(c2ccc(N3CCOCC3)c(F)c2)C(=O)O1 [LINEZOLID]" readout_kind=MIC unit_abbreviation=mg/L reported_measurement=1
compound=O=C1O[C@@H](CNC(=S)Nc2ccc([N+](=O)[O-])cc2)CN1c1ccc(N2CCOCC2)c(F)c1 readout_kind=MIC unit_abbreviation=mg/L reported_measurement=2

Which MIC value belongs to O=C1O[C@@H](CNC(=S)Nc2ccccc2)CN1c1ccc(N2CCOCC2)c(F)c1 ? 10
